Listed next: entries and their corresponding koff.
target: T1, human MASP-2cf CCP1-CCP2-SP (human, UniProt O00187 298-686, limits assumed); assay: SPR, target immobilised
T1 construct: domain: CCP1-CCP2-SP; also called human MASP-2 catalytic fragment
T1 sequence (O00187 298-686 limits assumed): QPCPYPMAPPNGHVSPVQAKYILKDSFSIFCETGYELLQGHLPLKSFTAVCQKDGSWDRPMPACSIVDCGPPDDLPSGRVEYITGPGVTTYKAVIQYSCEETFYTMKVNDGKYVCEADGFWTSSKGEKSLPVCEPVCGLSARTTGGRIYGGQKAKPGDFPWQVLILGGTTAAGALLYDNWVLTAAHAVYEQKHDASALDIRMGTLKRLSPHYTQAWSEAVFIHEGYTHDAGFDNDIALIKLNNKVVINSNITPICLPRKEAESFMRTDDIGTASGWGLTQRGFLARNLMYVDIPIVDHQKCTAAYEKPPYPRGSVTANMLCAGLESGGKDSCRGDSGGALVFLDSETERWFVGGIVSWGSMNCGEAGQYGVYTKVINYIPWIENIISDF
Where no end group is shown, it is not given here.
The response must be a number in s⁻¹ with no trailing unit.

* EVO211 (designed binder, not fully specified; ends and bridges not checked, Modified TFPI-D2 Kunitz domain; made as m1) KPDFCFLENDPGWCRALKRRYFYNNQTKQCERFGYGGCLGNMNNFVTLEECKNICEDG | 6.62e-05

Exercise: Which koff reading was recorded for the binder EVO2c (designed binder, not fully specified; cysteine pairing not given here, Modified TFPI-D2 Kunitz domain; made as m1) KPDFCFLEEDPGPCRAVKRRYFYNNQTKQCERFYYGGCLGNMNNFETLEECKNICEDG ?
Solution: 0.00161
